# Tested on: blood coagulation
# EXPERIMENT SUMMARY: PT and aPTT assay in cynomolgus monkeys (Example 45)
# Type: in vivo
# SETTINGS: day 22; escalating dose regimen; platelet poor plasma
Some substances, each annotated with its measured PT ratio (INR).
QUANTITY KIND: PT ratio (INR)

ISIS 416850: MOE gapmer, nucleobases 1275 to 1318 of SEQ ID NO: 1 (Table 8) (antisense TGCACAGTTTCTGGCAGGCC; MOE gapmer, wing and gap sizes not given here) | 1.02
ISIS 416858: MOE gapmer, nucleobases 1275 to 1318 of SEQ ID NO: 1 (Table 8) (antisense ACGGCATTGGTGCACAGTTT; MOE gapmer, wing and gap sizes not given here) | 1.06

====

# EXPERIMENT SUMMARY: Hematology assays in cynomolgus monkeys (Example 45)
# Format: in vivo
# SETTINGS: day 29
QUANTITY KIND: monocytes

ISIS 416850: MOE gapmer, nucleobases 1275 to 1318 of SEQ ID NO: 1 (Table 8) (antisense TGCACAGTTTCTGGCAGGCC; MOE gapmer, wing and gap sizes not given here) | 2.7%
ISIS 417002: MOE gapmer, nucleobases 1275 to 1318 of SEQ ID NO: 1 (Table 8) (antisense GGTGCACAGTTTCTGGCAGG; MOE gapmer, wing and gap sizes not given here) | 3.5%
ISIS 416864: MOE gapmer, nucleobases 1275 to 1318 of SEQ ID NO: 1 (Table 8) (antisense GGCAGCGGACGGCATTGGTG; MOE gapmer, wing and gap sizes not given here) | 3.4%
ISIS 416838: MOE gapmer, nucleobases 1018 to 1042 of SEQ ID NO: 1 (Table 6) (antisense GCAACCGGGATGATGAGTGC; MOE gapmer, wing and gap sizes not given here) | 3.2%
ISIS 416858: MOE gapmer, nucleobases 1275 to 1318 of SEQ ID NO: 1 (Table 8) (antisense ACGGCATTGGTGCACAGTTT; MOE gapmer, wing and gap sizes not given here) | 3.8%

====

# EXPERIMENT SUMMARY: Hematology assays in cynomolgus monkeys (Example 45)
# Assay type: in vivo
# SETTINGS: day 57
# Method: Groups, each consisting of two male and three female monkeys, were injected subcutaneously with ISIS 416838, ISIS 416850, ISIS 416858, ISIS 416864, or ISIS 417002 in escalating doses. […] Body weights were measured weekly. […]
QUANTITY KIND: platelet count (µL⁻¹)

ISIS 416838: MOE gapmer, nucleobases 1018 to 1042 of SEQ ID NO: 1 (Table 6) (antisense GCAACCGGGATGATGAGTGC; MOE gapmer, wing and gap sizes not given here) | 371000
ISIS 417002: MOE gapmer, nucleobases 1275 to 1318 of SEQ ID NO: 1 (Table 8) (antisense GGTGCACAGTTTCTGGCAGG; MOE gapmer, wing and gap sizes not given here) | 403000
ISIS 416864: MOE gapmer, nucleobases 1275 to 1318 of SEQ ID NO: 1 (Table 8) (antisense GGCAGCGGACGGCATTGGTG; MOE gapmer, wing and gap sizes not given here) | 409000
ISIS 416858: MOE gapmer, nucleobases 1275 to 1318 of SEQ ID NO: 1 (Table 8) (antisense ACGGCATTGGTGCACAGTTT; MOE gapmer, wing and gap sizes not given here) | 333000
ISIS 416850: MOE gapmer, nucleobases 1275 to 1318 of SEQ ID NO: 1 (Table 8) (antisense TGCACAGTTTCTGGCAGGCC; MOE gapmer, wing and gap sizes not given here) | 528000

====

# Tested on: human Factor 11 mRNA
# EXPERIMENT SUMMARY: Dose-dependent inhibition of human Factor 11 in HepB3 cells, electroporation (Example 7)
# Type: cell-based
# SETTINGS: 123.457 nM, ~16 hours
QUANTITY KIND: percent inhibition of human Factor 11 mRNA relative to untreated control cells (%)

416858 (antisense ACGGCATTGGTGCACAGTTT; 5-10-5 gapmer, further chemistry not given here) [compound 416858] | 45
416838 (antisense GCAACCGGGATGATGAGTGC; 5-10-5 gapmer, further chemistry not given here) [compound 416838] | 9
416826 (antisense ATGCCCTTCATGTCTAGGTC; 5-10-5 gapmer, further chemistry not given here) [compound 416826] | 0
416864 (antisense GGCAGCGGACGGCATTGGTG; 5-10-5 gapmer, further chemistry not given here) [compound 416864] | 3
417002 (antisense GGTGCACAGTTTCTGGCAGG; 2-13-5 gapmer chemistry, further chemistry not given here) [compound 417002] | 0

====

# EXPERIMENT SUMMARY: Hematology assays in cynomolgus monkeys (Example 46)
# Assay type: in vivo
# SETTINGS: Day 55
Strand notation (5' to 3'): a small letter for the sugar, then the base; units joined by * are phosphorothioate-linked, units joined directly phosphodiester-linked; [ ] holds rarer units or linkages, { } end groups; capitals alone tell only the bases. e = 2'-O-(2-methoxyethyl) (MOE); [5mC] = 5-methylcytosine; d = 2'-deoxy (DNA)
// reported WBC count per item
QUANTITY KIND: WBC count (µL⁻¹)

ISIS 416850: MOE gapmer, nucleobases 1275 to 1318 of SEQ ID NO: 1 (Table 8) (antisense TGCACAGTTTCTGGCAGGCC; MOE gapmer, wing and gap sizes not given here) | 10000
ISIS 449710: 3-8-3, 4-8-4, 2-10-2, 3-10-3 or 4-10-4 MOE microwalk gapmer (Table 46) (antisense e[5mC]*eA*e[5mC]*dA*dG*dT*dT*dT*d[5mC]*dT*dG*dG*d[5mC]*eA*eG*eG) | 15000
ISIS 445531: 5-8-5 or 6-8-6 MOE microwalk gapmer (Table 44) (antisense eG*eG*e[5mC]*eA*eT*dT*dG*dG*dT*dG*d[5mC]*dA*d[5mC]*eA*eG*eT*eT*eT) | 15000
ISIS 445522: 5-8-5 or 6-8-6 MOE microwalk gapmer (Table 44) (antisense eG*e[5mC]*eA*e[5mC]*eA*dG*dT*dT*dT*d[5mC]*dT*dG*dG*e[5mC]*eA*eG*eG*e[5mC]) | 11000
ISIS 449711: 3-8-3, 4-8-4, 2-10-2, 3-10-3 or 4-10-4 MOE microwalk gapmer (Table 46) (antisense eA*e[5mC]*dA*dG*dT*dT*dT*d[5mC]*dT*dG*dG*d[5mC]*eA*eG) | 7000

====

# Test system: platelet aggregation
# EXPERIMENT SUMMARY: Platelet aggregation assay, ADP and/or collagen (Example 45)
# Type: in vivo, cynomolgus monkeys
# SETTINGS: day 43 (with collagen); escalating dose regimen
QUANTITY KIND: platelet aggregation (Ohms)

ISIS 416838: MOE gapmer, nucleobases 1018 to 1042 of SEQ ID NO: 1 (Table 6) (antisense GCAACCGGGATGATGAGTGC; MOE gapmer, wing and gap sizes not given here) | 16
ISIS 416864: MOE gapmer, nucleobases 1275 to 1318 of SEQ ID NO: 1 (Table 8) (antisense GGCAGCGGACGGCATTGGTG; MOE gapmer, wing and gap sizes not given here) | 20
ISIS 417002: MOE gapmer, nucleobases 1275 to 1318 of SEQ ID NO: 1 (Table 8) (antisense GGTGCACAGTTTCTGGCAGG; MOE gapmer, wing and gap sizes not given here) | 19
ISIS 416850: MOE gapmer, nucleobases 1275 to 1318 of SEQ ID NO: 1 (Table 8) (antisense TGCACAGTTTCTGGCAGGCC; MOE gapmer, wing and gap sizes not given here) | 16
ISIS 416858: MOE gapmer, nucleobases 1275 to 1318 of SEQ ID NO: 1 (Table 8) (antisense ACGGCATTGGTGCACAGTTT; MOE gapmer, wing and gap sizes not given here) | 16

====

# EXPERIMENT SUMMARY: Hematology assays in cynomolgus monkeys (Example 45)
# Assay type: in vivo
# SETTINGS: day 71; escalating dose regimen
QUANTITY KIND: MCHC

ISIS 416858: MOE gapmer, nucleobases 1275 to 1318 of SEQ ID NO: 1 (Table 8) (antisense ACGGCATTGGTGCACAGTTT; MOE gapmer, wing and gap sizes not given here) | 30 g/dL
ISIS 416864: MOE gapmer, nucleobases 1275 to 1318 of SEQ ID NO: 1 (Table 8) (antisense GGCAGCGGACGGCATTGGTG; MOE gapmer, wing and gap sizes not given here) | 28 g/dL
ISIS 416838: MOE gapmer, nucleobases 1018 to 1042 of SEQ ID NO: 1 (Table 6) (antisense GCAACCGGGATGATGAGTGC; MOE gapmer, wing and gap sizes not given here) | 29 g/dL
ISIS 417002: MOE gapmer, nucleobases 1275 to 1318 of SEQ ID NO: 1 (Table 8) (antisense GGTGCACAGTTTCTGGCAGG; MOE gapmer, wing and gap sizes not given here) | 29 g/dL
ISIS 416850: MOE gapmer, nucleobases 1275 to 1318 of SEQ ID NO: 1 (Table 8) (antisense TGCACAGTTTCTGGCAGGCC; MOE gapmer, wing and gap sizes not given here) | 28 g/dL
